Give measured Combination Indices at % HIV Inhibition (Confidence Interval) 50% for each item. Keep answers brief.
tested on: HIV-1 LAI; experiment: microbe, parasite or virus in culture; settings: Compound 1 + named drug, EC50 ratio 1:1 (Compound 1:comparator); 95% confidence interval in parentheses

• Cc1cn([C@H]2C=C[C@@H](CO)O2)c(=O)[nH]c1=O = 0.52 (0.40, 0.64)
• CC(C)Nc1cccnc1N1CCN(C(=O)c2cc3cc(NS(C)(=O)=O)ccc3[nH]2)CC1 = 0.90 (0.75, 1.06)

Let's switch to this molecule now.
Query string: Return the recorded Combination Indices at % HIV Inhibition (Confidence Interval) 50% value; entry: CC(C)(C)NC(=O)[C@@H]1C[C@@H]2CCCC[C@@H]2CN1C[C@@H](O)[C@H](Cc1ccccc1)NC(=O)[C@H](CC(N)=O)NC(=O)c1ccc2ccccc2n1
Result string: 0.31 (0.28, 0.33)
